Please provide measured pEC50 for the entries that follow.
- ASSAY_TARGET: human TPO receptor (Homo sapiens, UniProt P40238)
- Sequence (P40238 26-635): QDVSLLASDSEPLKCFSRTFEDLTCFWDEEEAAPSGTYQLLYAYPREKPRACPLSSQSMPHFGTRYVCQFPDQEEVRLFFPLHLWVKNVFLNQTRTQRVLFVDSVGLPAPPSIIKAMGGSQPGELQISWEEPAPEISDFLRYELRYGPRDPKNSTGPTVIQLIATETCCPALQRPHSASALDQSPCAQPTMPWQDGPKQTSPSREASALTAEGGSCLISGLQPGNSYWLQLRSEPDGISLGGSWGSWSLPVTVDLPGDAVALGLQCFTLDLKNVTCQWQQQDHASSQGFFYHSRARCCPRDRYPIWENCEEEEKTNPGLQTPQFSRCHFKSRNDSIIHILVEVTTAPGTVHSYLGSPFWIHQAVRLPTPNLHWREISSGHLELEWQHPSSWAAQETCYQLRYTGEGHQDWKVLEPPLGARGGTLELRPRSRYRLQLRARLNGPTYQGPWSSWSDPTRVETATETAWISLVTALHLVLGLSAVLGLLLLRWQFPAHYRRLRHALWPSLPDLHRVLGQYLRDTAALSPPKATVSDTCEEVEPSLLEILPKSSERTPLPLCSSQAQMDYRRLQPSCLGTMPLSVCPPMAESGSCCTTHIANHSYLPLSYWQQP
- ASSAY_REMARKS: Thrombopoietic activity: proliferation of TPO dependent BaF/hTPOR cells (WST-1)
- SETUP_CONDITIONS: BaF/hTPOR cell line (BaF-B03 with human TPO receptor), without IL-3; 20 hours incubation + 4 hours WST-1, absorbance 450 nm; ED50 = half concentration of the concentration showing maximum thrombopoietic activity
Answers are plain numbers, as −log10 of the molar value.

COMPOUND	EXPERIMENTAL_VALUE
O=C(Nc1nc(-c2ccc(Cl)c(Cl)c2)cs1)c1ccc2cc(C(=O)O)sc2c1	7.15

Provide pEC50 values for the following items, in order.
1. O=C(Nc1nc(-c2ccc(Cl)c(Cl)c2)cs1)c1ccc2cc(C(=O)O)oc2c1
2. O=C(Nc1nc(-c2cccc(Cc3ccccc3)c2F)cs1)c1ccc2c(c1)CCC(C(=O)O)C2 (stereo not drawn)
3. O=C(Nc1nc(-c2cccc(F)c2F)cs1)c1ccc2c(c1)CCC(C(=O)O)C2 (stereo not drawn)
4. COC(c1cccc(-c2csc(NC(=O)c3ccc4c(c3)CCC(C(=O)O)C4)n2)c1F)C(C)C (stereo not drawn)
5. CCCCc1cccc(-c2csc(NC(=O)c3ccc4c(c3)CCC(C(=O)O)C4)n2)c1 (stereo not drawn)

6.25
6.98
7.55
7.19
6.66

From: patent US7169931B2
